# Tested target: human SMS1 (Homo sapiens, UniProt Q86VZ5)
# Sequence (Q86VZ5 1-413): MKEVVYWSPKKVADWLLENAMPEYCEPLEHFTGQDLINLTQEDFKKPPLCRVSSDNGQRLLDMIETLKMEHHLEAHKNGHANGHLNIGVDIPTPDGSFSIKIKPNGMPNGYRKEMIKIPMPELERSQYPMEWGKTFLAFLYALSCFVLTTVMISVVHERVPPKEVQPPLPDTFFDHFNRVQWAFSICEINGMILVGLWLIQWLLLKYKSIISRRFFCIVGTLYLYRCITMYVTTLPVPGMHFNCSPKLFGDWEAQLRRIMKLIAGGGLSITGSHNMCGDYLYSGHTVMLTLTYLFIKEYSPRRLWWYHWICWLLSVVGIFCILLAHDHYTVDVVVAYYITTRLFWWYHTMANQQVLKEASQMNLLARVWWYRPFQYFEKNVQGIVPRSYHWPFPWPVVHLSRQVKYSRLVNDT
pIC50: −log10 of the molar value.
Recorded endpoint: pIC50

COc1ccccc1COc1ccsc1C(=O)Nc1cccnc1 [14e]    3.80
CCCCCCCCCOc1ccccc1COc1ccsc1C(=O)Nc1cccnc1 [14m]    4.89
CCCCCCCOc1ccccc1COc1ccsc1C(=O)Nc1cccnc1 [14k]    4.89
CCCCCCCCCCCOc1ccccc1COc1ccsc1C(=O)Nc1cccnc1 [14o]    4.89

I. CCCCCOc1ccccc1COc1ccsc1C(=O)Nc1cccnc1 [14i]
II. O=C(Nc1cccnc1)c1sccc1OCc1ccccc1
Which gives the smaller pIC50 number: I or II ? Kindly give the label for the entry you pick.
II
(II: 3.66, I: 5.00)

====

# Assay name: in vivo
# Condition parameters: male, SD, rat, meibomian glands, topical or ocular, 16 ug
Recorded endpoint: Cmax (ng/g)
Field format: number, assumed ng/g, no unit text.

Cmax lookup needed for CCCCCCCCOc1ccccc1COc1ccsc1C(=O)Nc1cccnc1 [14l] , thanks.
2730

====

# Tested target: UniProt:Q8NHU3
# Assay name: purified SMS enzyme inhibitory assay in vitro
# Format: biochemical
# Condition parameters: IC50, SMS1/IC50, SMS2
Recorded endpoint: Selectivity ratio

CCCCCCCCCCOc1ccccc1COc1ccsc1C(=O)Nc1cccnc1 [14n]    409
CCCOc1ccccc1COc1ccsc1C(=O)Nc1cccnc1 [14g]    477

1. CCCCCCCCCCCCOc1ccccc1COc1ccsc1C(=O)Nc1cccnc1 [14p]
2. COc1ccccc1COc1ccsc1C(=O)Nc1cccnc1 [14e]
3. CCCCCOc1ccccc1COc1ccsc1C(=O)Nc1cccnc1 [14i]
4. CCCCOc1ccccc1COc1ccsc1C(=O)Nc1cccnc1 [14h]
# rank_down: sort by Selectivity ratio, max first # format: label list in the order the request specifies
2, 1, 4, 3

====

# Tested target: UniProt Q86VZ5
# Sequence (Q86VZ5 1-413): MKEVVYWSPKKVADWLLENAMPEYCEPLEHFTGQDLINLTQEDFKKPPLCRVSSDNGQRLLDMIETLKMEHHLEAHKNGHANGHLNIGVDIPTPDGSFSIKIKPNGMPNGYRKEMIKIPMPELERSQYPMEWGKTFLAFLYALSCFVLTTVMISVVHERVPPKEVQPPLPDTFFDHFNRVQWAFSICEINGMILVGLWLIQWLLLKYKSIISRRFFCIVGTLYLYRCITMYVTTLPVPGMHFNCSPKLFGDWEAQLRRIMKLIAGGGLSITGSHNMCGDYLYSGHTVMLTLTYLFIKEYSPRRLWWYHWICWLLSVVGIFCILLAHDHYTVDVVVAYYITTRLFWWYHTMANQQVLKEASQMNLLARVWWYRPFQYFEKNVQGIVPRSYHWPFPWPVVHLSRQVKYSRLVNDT
# Assay name: purified SMS enzyme inhibitory assay in vitro
# Type: biochemical
# Condition parameters: read-out: SMS1 Inhibition @ 100 μmol/L (%)
Recorded endpoint: inhibition at 100 µM (%)

Cc1ccc(NC(=O)c2sccc2OCc2ccccc2)cn1    22
O=C(Nc1cccnc1)c1sccc1OCc1cccc2ccccc12    39
O=C(Nc1cccnc1)c1sc([N+](=O)[O-])cc1OCc1ccccc1    -4
O=C(Nc1cccnc1)c1sccc1OCc1cccc2cccnc12    21
O=C(Nc1cccnc1)c1sccc1OCc1ccccc1    20
CCCCCCCCOc1ccccc1COc1ccsc1C(=O)Nc1cccnc1 [14l]    87

a. CN(C(=O)c1sccc1OCc1ccccc1)c1cccnc1
b. CCCCOc1ccccc1COc1ccsc1C(=O)Nc1cccnc1 [14h]
Kindly identify which of a and b has the larger recorded inhibition at 100 µM value. Kindly give the label for the entry you pick.
b

====

# Tested target: human SMS2 (Homo sapiens)
# Assay name: purified SMS enzyme inhibitory assay in vitro
# Format: biochemical
# Condition parameters: read-out: SMS2 Inhibition @ 1 μmol/L (%)
Recorded endpoint: inhibition at 1 µM (%)

O=C(Nc1cccnc1)c1sccc1OCc1cccc2ccccc12    86
O=C(Nc1cccnc1)c1sccc1OCc1ccccc1    66
CCCCCCCCOc1ccccc1COc1ccsc1C(=O)Nc1cccnc1 [14l]    95
O=C(Nc1cccnc1)c1sccc1OCc1cccc(Cl)c1 [14b]    68
CCCCOc1ccccc1COc1ccsc1C(=O)Nc1cccnc1 [14h]    85
CCCCCCCCOc1ccc(Cl)cc1COc1ccsc1C(=O)Nc1cccnc1 [14r]    91
Cc1cncc(NC(=O)c2sccc2OCc2ccccc2)c1    12
O=C(Nc1cccnc1)c1sccc1OS(=O)(=O)c1ccccc1    -3
CCCCCCCCOc1c(Cl)cccc1COc1ccsc1C(=O)Nc1cccnc1 [14q]    98
Cc1ccncc1NC(=O)c1sccc1OCc1ccccc1    -4

I. Cc1ncccc1NC(=O)c1sccc1OCc1ccccc1
II. COc1ccccc1COc1ccsc1C(=O)Nc1cccnc1 [14e]
Which gives the smaller inhibition at 1 µM number: I or II ? Kindly give the label for the entry you pick.
I

====

# Assay name: in vivo
# Condition parameters: male, SD, rat, cornea, topical or ocular, 16 ug
Recorded endpoint: Tmax (h)
Field format: number, assumed h, no unit text.

Tmax lookup needed for CCCCCCCCOc1ccccc1COc1ccsc1C(=O)Nc1cccnc1 [14l] , thanks.
1

====

Target sequence: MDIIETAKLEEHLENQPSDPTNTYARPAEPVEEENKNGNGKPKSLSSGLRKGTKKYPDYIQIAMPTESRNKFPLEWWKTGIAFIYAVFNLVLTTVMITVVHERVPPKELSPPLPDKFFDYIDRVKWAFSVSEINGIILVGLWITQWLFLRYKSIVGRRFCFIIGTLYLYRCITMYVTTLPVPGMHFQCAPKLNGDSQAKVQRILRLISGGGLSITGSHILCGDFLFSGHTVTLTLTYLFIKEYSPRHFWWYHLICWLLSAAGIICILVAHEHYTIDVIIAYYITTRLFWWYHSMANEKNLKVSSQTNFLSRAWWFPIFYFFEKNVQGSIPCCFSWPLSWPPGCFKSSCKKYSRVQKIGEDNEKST
Recorded endpoint: IC50 (nM)

These recorded examples may help you get a feel for the data.
CCCCCCOc1ccccc1COc1ccsc1C(=O)Nc1cccnc1 [14j]    67
CCCCCCCCCOc1ccccc1COc1ccsc1C(=O)Nc1cccnc1 [14m]    35

I. CCCCCOc1ccccc1COc1ccsc1C(=O)Nc1cccnc1 [14i]
II. CCCCCCCCOc1ccccc1COc1ccsc1C(=O)Nc1cccnc1 [14l]
III. O=C(Nc1cccnc1F)c1sccc1OCc1ccccc1 [7a]
IV. O=C(Nc1cccnc1)c1sccc1OCc1cccc(Cl)c1 [14b]
V. O=C(Nc1cccnc1)c1sccc1OCc1ccccc1Cl [14a]
# rank_down: sort by IC50, max first # format: label list in the order the request specifies
III, V, IV, I, II

====

# Tested target: human SMS2 (Homo sapiens, UniProt Q8NHU3)
# Assay name: purified SMS enzyme inhibitory assay in vitro
# Assay type: biochemical
# Condition parameters: IC50, SMS1/IC50, SMS2
Recorded endpoint: Selectivity ratio

CCCCCCCCCCCOc1ccccc1COc1ccsc1C(=O)Nc1cccnc1 [14o]    445

I. O=C(Nc1cccnc1)c1sccc1OCc1ccccc1 [5a]
II. CCCCCCOc1ccccc1COc1ccsc1C(=O)Nc1cccnc1 [14j]
Kindly identify which of I and II has the larger recorded Selectivity ratio value. Kindly give the label for the entry you pick.
I
(I: 547, II: 85)

====

# Tested target: human SMS1 (Homo sapiens, UniProt Q86VZ5)
# Assay name: purified SMS enzyme inhibitory assay in vitro
# Type: biochemical
# Condition parameters: read-out: SMS1 Inhibition @ 100 μmol/L (%)
Recorded endpoint: inhibition at 100 µM (%)

Cc1ncccc1NC(=O)c1sccc1OCc1ccccc1 [7e]    -20

a. CCCCCCCCCOc1ccccc1COc1ccsc1C(=O)Nc1cccnc1 [14m]
b. O=C(Nc1cccnc1)c1sccc1OCc1cccc(Cl)c1 [14b]
Which gives the smaller inhibition at 100 µM number: a or b ? Kindly give the label for the entry you pick.
b
(b: 60%, a: 86%)

====

# Tested target: human SMS2 (Homo sapiens)
# Assay name: purified SMS enzyme inhibitory assay in vitro
# Format: biochemical
# Condition parameters: read-out: SMS2 Inhibition @ 1 μmol/L (%)
Recorded endpoint: inhibition at 1 µM (%)

These recorded examples may help you get a feel for the data.
O=C(Nc1cccnc1)c1sccc1OCc1cccc2cccnc12    45
O=C(Nc1cncc(F)c1)c1sccc1OCc1ccccc1    56
Cc1ccc(NC(=O)c2sccc2OCc2ccccc2)cn1    -3
O=C(Nc1ccc(F)nc1)c1sccc1OCc1ccccc1    12

P. CCOc1ccccc1COc1ccsc1C(=O)Nc1cccnc1 [14f]
Q. O=C(Nc1cnccc1Cl)c1sccc1OCc1ccccc1
Kindly identify which of P and Q has the larger recorded inhibition at 1 µM value. Kindly give the label for the entry you pick.
P
(P: 83%, Q: 7%)

1. CCCCCCCCCCCOc1ccccc1COc1ccsc1C(=O)Nc1cccnc1 [14o]
2. CN(C(=O)c1sccc1OCc1ccccc1)c1cccnc1
Kindly identify which of 1 and 2 has the larger recorded inhibition at 1 µM value. Kindly give the label for the entry you pick.
1
